B1: tRNA (parent)
chain: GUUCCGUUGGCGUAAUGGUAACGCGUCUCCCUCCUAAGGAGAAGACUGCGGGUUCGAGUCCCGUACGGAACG

Variants of: B1
assayText: yeast fitness relative to wild type (ratio to wild type); higher = fitter; tRNA-Arg(CCU), competitive growth, 37 C, YPD
This sample holds only a part of the variants without activity.
Assign yeast fitness to each entry below.

Past entries and their recorded results:
## Input Give recorded yeast fitness. G17A A45U G52A
## Output ≤ 0.5

## Input Give recorded yeast fitness. G12A U19G U35C A40U C61A
## Output ≤ 0.5

## Input Give recorded yeast fitness. A42G G51C
## Output ≤ 0.5

## Input Give recorded yeast fitness. C27A A36G A37G A70U
## Output ≤ 0.5

## Input Give recorded yeast fitness. G12C A20C C27G A45G C66A
## Output ≤ 0.5

// input: 7 variants below; output: yeast fitness for each
1. C5U A15G C60A A70C
2. U13C G23C C62A
3. C4U G9A C34U A36G C55G A57U G67A
4. C11A U28C A43G A65C
5. C5G C24G C34G C46U C61A A70U
6. C22G U26C U32A G48A
7. C11G G17C A40G

## Output
["≤ 0.5", "≤ 0.5", "≤ 0.5", "≤ 0.5", "≤ 0.5", "≤ 0.5", "≤ 0.5"]
